For each entry below, report its efflux ratio at 2 h, 1 µM value.
# system tested: BCRP (Homo sapiens (Human), UniProt Q9UNQ0)
# Sequence (Q9UNQ0 whole entry): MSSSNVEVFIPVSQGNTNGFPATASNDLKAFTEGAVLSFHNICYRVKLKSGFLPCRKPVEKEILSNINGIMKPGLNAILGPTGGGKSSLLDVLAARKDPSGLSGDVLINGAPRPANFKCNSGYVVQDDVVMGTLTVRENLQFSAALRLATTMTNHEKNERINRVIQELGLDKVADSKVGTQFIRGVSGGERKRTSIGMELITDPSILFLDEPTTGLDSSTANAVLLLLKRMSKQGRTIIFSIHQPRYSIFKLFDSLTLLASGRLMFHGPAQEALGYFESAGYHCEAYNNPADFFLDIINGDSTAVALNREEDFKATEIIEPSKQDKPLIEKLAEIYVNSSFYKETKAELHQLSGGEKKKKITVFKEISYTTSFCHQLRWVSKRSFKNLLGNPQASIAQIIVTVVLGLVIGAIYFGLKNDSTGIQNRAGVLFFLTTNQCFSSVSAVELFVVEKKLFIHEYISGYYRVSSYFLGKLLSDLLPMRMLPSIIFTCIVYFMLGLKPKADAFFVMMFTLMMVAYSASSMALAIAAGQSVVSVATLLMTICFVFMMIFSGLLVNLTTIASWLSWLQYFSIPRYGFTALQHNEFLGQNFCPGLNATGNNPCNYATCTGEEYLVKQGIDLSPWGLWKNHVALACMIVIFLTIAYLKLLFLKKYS
# experiment notes: BCRP MDCKII permeability assay: efflux ratio
# Format: in vitro ADME
# particulars: dog
Structures can show the parent of a compound that is named as a salt.

Below, each entry is followed by its recorded efflux ratio at 2 h, 1 µM result.
- molecule: "Cc1c(Oc2c(F)ccc(NS(=O)(=O)N3CC[C@@H](F)C3)c2Cl)ccc2ncn(C)c(=O)c12 [Example 70]"
  system tested: "BCRP (Homo sapiens (Human), UniProt Q9UNQ0)"
  reported value: 1
- molecule: "COCC1(C)CN(S(=O)(=O)Nc2ccc(F)c(Nc3ccc4ncn(C)c(=O)c4c3C)c2Cl)C1 [Example 140, trifluoroacetate]"
  system tested: "BCRP (Homo sapiens (Human), UniProt Q9UNQ0)"
  reported value: 0.8
- molecule: "CO[C@@H]1CN(S(=O)(=O)Nc2ccc(F)c(Nc3ccc4ncn(C)c(=O)c4c3Cl)c2Cl)C[C@@H]1F (relative stereo) [Example 18]"
  system tested: "BCRP (Homo sapiens (Human), UniProt Q9UNQ0)"
  reported value: 4.9
- molecule: "COCC1CN(S(=O)(=O)Nc2ccc(F)c(Nc3ccc4ncn(C)c(=O)c4c3C)c2Cl)C1 [Example 131]"
  system tested: "BCRP (Homo sapiens (Human), UniProt Q9UNQ0)"
  reported value: 1.7
- molecule: "CO[C@@H]1CCN(S(=O)(=O)Nc2cc(F)c(F)c(Nc3ccc4ncn(C)c(=O)c4c3Cl)c2Cl)C1 [Example 32, trifluoroacetate]"
  system tested: "BCRP (Homo sapiens (Human), UniProt Q9UNQ0)"
  reported value: 1

Quick request: efflux ratio at 2 h, 1 µM for each listed item, please.
1. Cn1cnc2ccc(Oc3c(F)ccc(NS(=O)(=O)N4C[C@@H](F)[C@@H](F)C4)c3Cl)c(Cl)c2c1=O [Example 59]
2. Cc1c(Nc2c(F)ccc(NS(=O)(=O)N3CC(OC(F)F)C3)c2Cl)ccc2ncn(C)c(=O)c12 [Example 161]

1. 12.9
2. 2.6

Batch: efflux ratio at 2 h, 1 µM for all items listed.
1. Cc1c(Oc2c(F)ccc(NS(=O)(=O)N3CC[C@@H](OC(F)F)C3)c2Cl)ccc2ncn(C)c(=O)c12.O=C(O)C(F)(F)F [Example 57]
2. Cn1cnc2ccc(Nc3c(F)ccc(NS(=O)(=O)N4CC(F)(F)C4)c3Cl)c(Cl)c2c1=O [Example 135]
3. Cn1cnc2ccc(Oc3c(F)ccc(NS(=O)(=O)N4CC[C@@H](F)C4)c3Cl)c(Cl)c2c1=O [Example 38]
4. Cn1cnc2ccc(Nc3c(F)ccc(NS(=O)(=O)N4CC5CC4C5)c3Cl)c(Cl)c2c1=O [Example 9, trifluoroacetate]
5. Cn1cnc2ccc(Nc3cc(Cl)cc(NS(=O)(=O)N4CC[C@@H](F)C4)c3F)c(F)c2c1=O [Example 58, trifluoroacetate]
6. Cc1c(Nc2c(F)ccc(NS(=O)(=O)N3CCOCC3)c2Cl)ccc2ncn(C)c(=O)c12 [Example 79]

1: 0.9; 2: 5.1; 3: 1.8; 4: 1.1; 5: 7.3; 6: 1

Given the entry Cn1cnc2ccc(Oc3c(F)ccc(NS(=O)(=O)N4CC(F)C4)c3Cl)c(F)c2c1=O [Example 122] , report its measured efflux ratio at 2 h, 1 µM.
7.8
